System: 266 human PDZ domains (PDZome)
Assay: Holdup assay (chromatographic retention, PDZome-binding profile, BI)
Design: key: binding intensity: 0.00 = no binding, 1.00 = maximal binding
Settings: PDZ domain PDZD7-3
Source text: The holdup method is a chromatographic approach in solution developed in our group that allows to measure the binding strength of a peptide, attached to a resin, against a library of domains of a same family. […] The flow-throughs containing the unbound protein fraction are recovered by filtration and loaded on a capillary electrophoresis instrument to quantify the amount of remaining free PDZ. […] The assay is particularly suited to quantitatively evaluate and compare large numbers of interactions. […]
*1 amine or outer side, *2 acyl side, *3 side chain or, on linkers, in order; H or OH if unused. Where a SMILES comes first, the peptide text is derived from it. The star is where a group is joined. X1 = O=C(CCCC[C@@H]1SC[C@@H]2NC(=O)N[C@@H]21)NCCCOCCOCCOCCCN*; Suc = O=C(CCC(=O)[*:2])[*:1]
Value kind: BI
Output: the number by itself.

# returns recorded BI (system: 266 human PDZ domains (PDZome)) for CC[C@H](C)[C@H](NC(=O)[C@H](CCC(N)=O)NC(=O)[C@@H](NC(=O)[C@H](Cc1c[nH]cn1)NC(=O)[C@H](CCC(N)=O)NC(=O)[C@H](CC(=O)O)NC(=O)[C@H](CCC(=O)O)NC(=O)[C@H](CC(=O)O)NC(=O)CCC(=O)NCCCOCCOCCOCCCNC(=O)CCCC[C@@H]1SC[C@@H]2NC(=O)N[C@@H]21)[C@@H](C)O)C(=O)N[C@H](C(=O)N[C@@H](CCCNC(=N)N)C(=O)N[C@H](C(=O)O)C(C)C)[C@@H](C)O [PTEN_KR] ({X1-Suc}-DEDQHTQITRV-OH) 0.756
